Molecular target: glucosylceramide synthase (GCS) (Homo sapiens (Human), UniProt Q16739)
Sequence (Q16739 whole entry): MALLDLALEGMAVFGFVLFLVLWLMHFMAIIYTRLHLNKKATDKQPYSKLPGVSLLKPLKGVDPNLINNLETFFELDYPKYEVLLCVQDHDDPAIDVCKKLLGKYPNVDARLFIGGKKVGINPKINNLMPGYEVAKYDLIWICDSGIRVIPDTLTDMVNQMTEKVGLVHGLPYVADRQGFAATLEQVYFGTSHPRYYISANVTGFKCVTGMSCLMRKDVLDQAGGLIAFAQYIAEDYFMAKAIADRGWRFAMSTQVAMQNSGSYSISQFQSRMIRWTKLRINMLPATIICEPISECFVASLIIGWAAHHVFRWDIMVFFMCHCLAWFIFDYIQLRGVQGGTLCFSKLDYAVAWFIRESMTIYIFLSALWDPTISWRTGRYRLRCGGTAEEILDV
Assay: UDP-Glo glucosylceramide synthase biochemical assay
Conditions: endogenous GCS in Golgi preparations isolated from human A375 malignant melanoma skin cells; UDP detection by luminescence
readout name: log10 of IC50 (log10 of the value in nM)
Hi team, quick reminder: these entries are log10 of IC50 (nM).

Ask: Specify reported log10 of IC50 for the compound shown: N#Cc1cnc(C2CC2)nc1OC[C@H]1CCN(c2cnc(-c3ccccc3)o2)C1 [Compound 8]
Reply: 2.95

Ask: Please give measured log10 of IC50 of the following entry: N#Cc1cnc(C2CC2)nc1OC[C@H]1CCN(c2cc(F)ncc2Cl)C1 [Compound 36]
Reply: 3.41

Ask: Identify measured log10 of IC50 associated with N#Cc1cnc(C2CC2)nc1NC1CN(C(c2ccccc2)c2ccccc2)C1 [Compound 92]
Reply: 3.46

Ask: Write down log10 of IC50 measured for item Cc1nnc(-c2ccc(N3CC[C@H](COc4nc(C5CC5)ncc4C#N)C3)cc2)s1 [Compound 13]
Reply: 1.90

Ask: Specify measured log10 of IC50 for CC1CN(c2ncc(C(F)(F)F)cn2)CC1COc1nc(C2CC2)ncc1C#N (centres unmarked) [Compound 53] .
Reply: 2.17

Ask: Give log10 of IC50 for OCc1c(Cl)nc(C2CC2)nc1NC1CCCc2sc(C3CCCCC3)nc21 (centres unmarked) [Compound 115]
Reply: 0.88

Ask: Using the record for COC[C@@H](c1ccc(C(F)(F)F)cc1)N1CCN(c2nc(C3CC3)ncc2C#N)C[C@@H]1C [Compound 81] , state its measured log10 of IC50.
Reply: 2.77

Ask: Entry Cc1nc2c(s1)CCCC2Nc1nc(C2CC2)nc(Cl)c1C(F)F (centres unmarked) [Compound 123] needs its log10 of IC50 filled in; supply it.
Reply: 2.92

* * *

Biological target: glucosylceramide synthase (GCS) (Homo sapiens (Human), UniProt Q16739)
Assay: UDP-Glo glucosylceramide synthase biochemical assay
Conditions: endogenous GCS in Golgi preparations isolated from human A375 malignant melanoma skin cells; UDP detection by luminescence
Exam item: assign label 1 to entries whose IC50 is below 400 nM and label 0 to entries at or above 400 nM. Note that a value of exactly 400 nM receives label 0.

Ask: Determine whether this compound shows IC50 lower than 400 nM (ties excluded): N#Cc1cnc(C2CC2)nc1OC[C@H]1CCN(c2cccc(-n3cccn3)c2)C1
Reply: label 1

Ask: Lab note: confirm whether the reported IC50 for this compound is below 400 nM, equality not counting. compound: N#Cc1cnc(C2CC2)nc1OC[C@H]1CCN(c2ccc(-n3cccn3)nc2)C1
Reply: label 1

Ask: Please determine if COc1ccc(C)nc1N1CC[C@H](COc2nc(C3CC3)ncc2C#N)C1 is below 400 nM in terms of IC50.
Reply: label 0

Ask: Item N#Cc1cnc(C2CC2)nc1OCC12CC1CN(c1ncc(C(F)(F)F)cn1)C2 (stereo not drawn) : IC50 beneath 400 nM, strictly?
Reply: label 1

Ask: Hello, I'm reviewing records and need to know if IC50 of Cc1nccc(-c2cccc(N3CC[C@H](COc4nc(C5CC5)ncc4C#N)C3)c2)n1 is below 400 nM. Could you check?
Reply: label 0

Ask: is_below(IC50, 400 nM) for N#Cc1cnc(C2CC2)nc1OCC1CCCN1Cc1ccc(F)cc1 (stereo not drawn) ?
Reply: label 0

Ask: Just wondering, is IC50 of N#Cc1cnc(C2CC2)nc1OCC1CCCN1c1ccccc1 (stereo not drawn) below 400 nM?
Reply: label 1

Ask: Is IC50 of N#Cc1cnc(C2CC2)nc1OC[C@H]1CCN(c2cnc(-n3cccn3)cn2)C1 strictly below 400 nM?
Reply: label 1

Ask: Does this compound meet the criterion IC50 < 400 nM? N#Cc1cnc(C2CC2)nc1OC[C@H]1CCN(C2CCC(F)(F)CC2)C1
Reply: label 0
